# experiment.notes: Agonist activity at PGI2 in human platelet-rich plasma assessed as inhibition of ADP-induced platelet aggregation
property.label: IC50 (nM)

INSERT INTO measurements (smiles_representation, observed) VALUES
  ('O=C(O)COc1cccc2c1CC[C@H](Cn1nc(C(c3ccccc3)c3ccccc3)ccc1=O)C2', 81);

* * *

Reported pIC50 values for the following compounds.
# experiment.notes: Antiplatelet activity in human washed platelets assessed as reduction in thrombin-induced platelet aggregation preincubated for 5 mins followed by thrombin induction measured after 5 mins by dual channel aggregometric analysis
# Format: functional, cell-based
pIC50: −log10 of the molar value.
property.label: pIC50

INSERT INTO measurements (smiles_representation, observed) VALUES
  ('CC(C)(C)c1ccc(CSc2c(-c3ccccc3)nn(C(C)(C)C)c(=O)c2F)cc1', 4.82),
  ('O=C(/C=C/c1cc(=O)[nH]nc1-c1ccccc1)c1ccccc1', 4.60),
  ('COC(=O)/C(=C/c1cc(O)nnc1-c1ccccc1)C(C)=O', 4.60),
  ('CCOC(=O)C(=Cc1cc(=O)[nH]nc1-c1ccccc1)C(=O)OCC', 4.70),
  ('COC(=O)C(=Cc1cc(=O)[nH]nc1-c1ccccc1)C(=O)OC', 4.35);
